Tested on: MRSA 3596
Experiment: Mode of antimicrobial action with erythromycin or gentamicin, ermA- and aadD-positive strain
Assay type: cell-based, S. aureus
Settings: MRSA 3596 (ermA); without erythromycin; Table 4
Protocol: Erythromycin is a macrolide antibiotic that inhibits proteosynthesis by binding to the 50S subunit of the ribosome. […] Sensitization of multidrug-resistant clinical bacterial strains was performed according to ref[15]. […] The absorbance detected at 600 nm was then used to estimate the number of viable cells after 24 h of incubation at 37 °C and 120 rpm. Experiments were performed with the respective number of replicates indicated in each figure/table. MIC was determined as IC70. […]
Rule: MIC, erythromycin [1 mg/L] no below 40 µM gives yes (1). Equal to or above 40 µM gives no (0).

Some solved cases for reference:
O=c1cc(-c2ccc(O)c(O)c2)oc2c(Nc3ccc(F)cc3)c(O)cc(O)c12: yes (1)
O=c1cc(-c2ccc(O)c(O)c2)oc2c(Nc3ccc(C(F)(F)F)cc3)c(O)cc(O)c12: yes (1)
COc1ccc(Nc2c(O)cc(O)c3c(=O)cc(-c4ccc(O)c(O)c4)oc23)cc1: no (0)
O=c1cc(-c2ccc(O)c(O)c2)oc2cc(O)cc(O)c12 [compound 10, luteolin, reference compound]: no (0)
O=c1c(O)c(-c2ccc(O)c(O)c2)oc2c(Nc3ccc(C(F)(F)F)cc3)c(O)cc(O)c12: yes (1)

Consider the additional compound presented here.
Query block: Strictly below 40 µM in MIC, erythromycin [1 mg/L] no? O=c1c(O)c(-c2ccc(O)c(O)c2)oc2cc(O)cc(O)c12 [compound 4, quercetin, reference compound]
Result block: no (0)
